Entries and their %Inh
test system: ASK1; construct: gene MAP3K5; conditions: concentration: 1 μM, replicates: in singlicate; n = 1;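 also: KINOMEscan kinase panel screen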
endpoint: %Inh

>>> print(df.to_string())
                           substance_smiles  endpoint  result
0    CN(C)c1cc(-c2ccc3c(N)n[nH]c3c2)nc(N)n1      %Inh      0%
1  OCCCNc1nccc(-c2c(-c3cccc(C(F)(F)F)c3)nn3cc(C(F)(F)F)ccc23)n1      %Inh      0%
2  CCCC(=O)Nc1n[nH]c2ncc(-c3cccc4ccccc34)cc12      %Inh      9%
3  Nc1nccc2scc(-c3ccc4c(c3)CCN4C(=O)Cc3ccccc3)c12      %Inh      6%
4  CCC(=O)c1c(-c2ccccc2)c2cc(Cl)ccc2c(=O)n1Cc1cc(S(C)(=O)=O)n(CC(F)F)n1      %Inh      0%

* * *

Entries and their %Inh
system: PCTK1; construct: gene CDK16; conditions: concentration: 1 μM, replicates: in singlicate; n = 1
endpoint: %Inh

>>> print(df.to_string())
                           substance_smiles  measured_target  endpoint  result
0  Nc1nccc2scc(-c3ccc4c(c3)CCN4C(=O)Cc3ccccc3)c12            PCTK1      %Inh      0%
1        CCc1nc(-c2cccc(C)c2)c(-c2ccncc2)s1            PCTK1      %Inh      0%
2  CCC(=O)c1c(-c2ccccc2)c2cc(Cl)ccc2c(=O)n1Cc1cc(C(=O)NC2CC2)n(C)n1            PCTK1      %Inh      1%
3  Cc1cccc(-c2nc(Nc3ccc4c(cnn4C)c3)c3ccccc3n2)n1            PCTK1      %Inh      0%
4     CCCNC(=O)Nc1ccc(Oc2ncnc3ccn(C)c23)cc1            PCTK1      %Inh     15%

* * *

Entries and their %Inh
system: MAP3K1; settings: concentration: 1 μM, replicates: in singlicate; n = 1
endpoint: %Inh (%)

>>> print(df.to_string())
                                   compound  measured_target  unit_text  numeric_result
0  Cc1ccc(-c2ccc3c(ccc4sc5c(c43)NC[C@@H](C)N=C5N(C)C)n2)cn1           MAP3K1          %               0
1  O=C(NCCNc1ccnc(Nc2ccc(F)cc2)n1)Nc1ccc2c(c1)OCO2 [GSK1379882]           MAP3K1          %               1
2  CN1C(=O)C(Nc2ccccc2)=C(c2ccccc2)C1=O [SB-300079]           MAP3K1          %               0
3  COc1cc2nccc(Nc3cccc(Oc4ccccc4)c3)c2cc1OC.Cl [GW284543]           MAP3K1          %               0
4  CCCC(=O)Nc1n[nH]c2ncc(-c3cccc4ccccc34)cc12 [SB-642057]           MAP3K1          %               7
5  CCC(=O)c1c(-c2ccccc2)c2cc(Cl)ccc2c(=O)n1Cc1cc(C(=O)NC2CC2)n(C)n1           MAP3K1          %               9
6  Cc1nnc(-c2ccc3ncn(-c4ccc(S(C)=O)cc4)c3c2)o1 (stereo not shown)           MAP3K1          %              16
